Catalogue of IC50 values
- System: VZV strain Ellen
- assay: VZV antiviral (ELISA) assay
- Assay type: cell-based
- condition_label: Human alphaherpesvirus 3; VZV strain Ellen, HFF cells, ELISA; read-out: IC50 (ug/ml) VZV

# annotated cases, reported IC50 shown
CC(NC(=S)Nc1ccc(NC(=O)c2nccc3ccccc23)cc1)c1ccc(F)cc1 (centres unmarked): 0.05 µg/mL
CC(O)c1cccc(NC(=S)Nc2ccc(NC(=O)c3ccccc3F)cc2)c1 (centres unmarked): > 10 µg/mL

Consider `COc1cc(OCC(F)(F)F)ccc1NC(=S)Nc1ccc(NC(=O)c2ccccc2F)cc1` . Its measured IC50 is 11 µg/mL

The value of IC50 measured for the compound `CN1CCC(N(C)c2ccc(NC(=S)Nc3ccc(NC(=O)c4ccccc4F)cc3)cc2Cl)CC1` turned out to be > 10 µg/mL

Lab note: measured IC50 of `O=C(Nc1ccc(NC(=S)NCCOc2ccccc2)cc1)c1ccccc1F` was 4 µg/mL

`O=C(Nc1ccc(NC(=S)Nc2ccc3[nH]cnc3c2)cc1)c1ccccc1F` yielded IC50 of > 10 µg/mL

For record `Cc1cccc(NC(=S)Nc2ccc(NC(=O)c3ccccc3F)cc2)c1` the listed IC50 is > 10 µg/mL

The compound listed as `N#Cc1cccc(NC(=S)Nc2ccc(NC(=O)c3ccccc3F)cc2)c1` shows IC50 equal to > 10 µg/mL

###

- Tested on: HCMV recombinant mutant virus whose genome contains the prokaryotic beta-glucuronidase gene
- assay: microbe, parasite or virus in culture
- Assay type: cell-based, human cytomegalovirus
- condition_label: Human betaherpesvirus 5, Fibroblast, read-out: IC50 ug/ml HCMV, HCMV, human foreskin fibroblasts
Below: a set of entries, each annotated with reported log10 of IC50.
Kindly note that the scale is log10 and the underlying IC50 is in µg/mL.

Solved entries:
O=C(Nc1ccc(NC(=S)Nc2cccc(Cl)c2)cc1)c1ccccc1F: 0.48
COc1ccc(NC(=S)Nc2ccc(NC(=O)c3cccc(F)c3)cc2)cc1Cl: 0.48
O=C(Nc1ccc(NC(=S)Nc2cccc(Cl)c2Cl)cc1)c1ccccc1F: 0.30
CC(C)c1cccc(NC(=S)Nc2ccc(NC(=O)c3ccccc3F)cc2)c1: 0.30
Nc1nccc(-c2ccc(NC(=S)Nc3ccc(NC(=O)c4ccccc4F)cc3)cc2Cl)n1: 0.26
O=C(Nc1ccc(NC(=S)Nc2ccccc2Cl)cc1)c1ccccc1F: 0.60

So, `COc1cc(OC)c(NC(=S)Nc2ccc(NC(=O)c3ccccc3OC(C)=O)cc2)cc1Cl` ? Its log10 of IC50 was 0.90

Note to self: log10 of IC50 recorded for CC(NC(=S)Nc1ccc(NC(=O)c2nccc3ccccc23)cc1)c1ccc(C#N)cc1 (stereo not drawn) was 0.57

Item: COc1ccccc1C(C)NC(=S)Nc1ccc(NC(=O)c2ccccc2F)cc1 (stereo not drawn) | log10 of IC50: 0.26

Data point: CC(NC(=S)Nc1ccc(NC(=O)c2ccccc2F)cc1)c1ccccc1Cl (stereo not drawn) ; log10 of IC50 = 0.04

Form field log10 of IC50, entry `CSc1ccc(NC(=S)Nc2ccc(NC(=O)c3c(F)cccc3F)cc2)cc1Cl` : -0.52

###

- System: VZV strain Ellen
- assay: VZV antiviral (ELISA) assay
- Format: cell-based
- condition_label: Human alphaherpesvirus 3; VZV strain Ellen, HFF cells, ELISA; read-out: IC50 (ug/ml) VZV
attribute_measured: IC50

O=C(Nc1ccc(NC(=S)Nc2cccc([N+](=O)[O-])c2)cc1)c1ccccc1F: > 10 µg/mL
CN(C)c1cc(NC(=S)Nc2ccc(NC(=O)c3ccccc3F)cc2)cc(C(F)(F)F)c1: 2 µg/mL
CC(NC(=S)Nc1ccc(NC(=O)c2ccccc2F)cc1)c1cccc(C(F)(F)F)c1 (centres unmarked): > 7.5 µg/mL
O=C(Nc1ccc(NC(=S)Nc2cc(C(F)(F)F)cc(C(F)(F)F)c2)cc1)c1ccccc1F: > 10 µg/mL
CC(NC(=S)Nc1ccc(NC(=O)c2cccc(C#N)c2)cc1)c1ccc(F)cc1 (centres unmarked): 6.3 µg/mL

Pending compound:
In plain terms, `O=C(Nc1ccc(NC(=S)NCc2ccc(F)c(C(F)(F)F)c2)cc1)c1ccccc1F` has a documented IC50 of > 10 µg/mL

###

Catalogue of IC50 readings, one per entry.
- System: HCMV recombinant mutant virus whose genome contains the prokaryotic beta-glucuronidase gene
- assay: microbe, parasite or virus in culture
- Format: cell-based, human cytomegalovirus
- condition_label: Human betaherpesvirus 5, Fibroblast, read-out: IC50 ug/ml HCMV, HCMV, human foreskin fibroblasts
A number alone suffices; assume µg/mL.

Study these solved cases before continuing.
COc1cc(OC)c(NC(=S)Nc2ccc(NC(=O)c3ccccc3-c3ccccc3)cc2)cc1Cl [Example 182]: 10
COc1cc(OC)c(NC(=S)Nc2ccc(NC(=O)c3ccccc3CO)cc2)cc1Cl [Example 185]: 10
COc1cc(OC)c(NC(=S)Nc2ccc(NC(=O)c3cccc(OC(F)(F)F)c3)cc2)cc1Cl [Example 256]: 9

Notebook: CC(NC(=S)Nc1ccc(NC(=O)c2cc3ccccc3o2)cc1)c1ccc(Br)cc1 (centres unmarked) [Example 982] , IC50 read as 1.3

Note to self: IC50 recorded for CC(NC(=S)Nc1ccc(NC(=O)c2ccccc2F)cc1)c1ccccc1Br (centres unmarked) [Example 783] was 1.1

So for CC(NC(=S)Nc1ccc(NC(=O)c2ccccc2F)cc1)c1cccc(Cl)c1 (centres unmarked) [Example 779] , the logged IC50 turned out to be 1.2

###

- Test system: VZV strain Ellen
- assay: VZV antiviral (ELISA) assay
- Assay type: cell-based
- condition_label: Human alphaherpesvirus 3, HFF, read-out: IC50 (ug/ml) VZV, VZV strain Ellen, HFF cells, ELISA
- Protocol: For the generation of stock VZV to be used in the assay, VZV strain Ellen (ATCC #VR-1367) is used to infect human foreskin fibroblast (HFF) cells at low multiplicity (less than 0.1) and incubated overnight at 37°C in 5% CO2. […] Antiviral activity (IC50) of the test compound is determined by comparing the flourescence obtained in absence of compound to that obtained in the presence of compound.
IC50 strictly under 2 µg/mL means true (1); at 2 µg/mL or over means false (0).

Below are worked cases with known answers.
Cc1ccccc1C(C)NC(=S)Nc1ccc(NC(=O)c2ccccc2F)cc1 (centres unmarked) [Example 775]: false (0)
CN(C)c1cc(CNC(=S)Nc2ccc(NC(=O)c3ccccc3F)cc2)cc(C(F)(F)F)c1 [Example 636]: false (0)
CCOC(=O)Nc1ccc(NC(=S)Nc2ccc(NC(=O)c3ccccc3F)cc2)cc1Cl [Example 399]: false (0)
CC(NC(=S)Nc1ccc(NC(=O)c2ccccc2F)cc1)c1ccc2ccccc2c1 (centres unmarked) [Example 799]: false (0)
CC(NC(=S)Nc1ccc(NC(=O)c2ccccc2C(F)(F)F)cc1)c1cc2ccccc2o1 (centres unmarked) [Example 974]: false (0)
CC(NC(=S)Nc1ccc(NC(=O)c2ccccc2F)cc1)c1ccccc1Cl (centres unmarked) [Example 784]: true (1)
C[C@@H](NC(=S)Nc1ccc(NC(=O)c2ccccc2F)cc1)c1ccc(Cl)cc1 [Example 1014]: false (0)
CC(C)C(NC(=S)Nc1ccc(NC(=O)c2ccccc2F)cc1)c1ccc(F)cc1 (centres unmarked) [Example 790]: false (0)
Cc1cccc(C(C)NC(=S)Nc2ccc(NC(=O)c3ccccc3F)cc2)c1 (centres unmarked) [Example 776]: false (0)
COc1ccccc1C(=O)Nc1ccc(NC(=S)NC(C)c2cc3ccccc3o2)cc1 (centres unmarked) [Example 1018]: true (1)

Exercise: For O=C(Nc1ccc(NC(=S)NCc2cc(Cl)cc(Cl)c2)cc1)c1ccccc1F [Example 583] , is the recorded IC50 below the cut-off of 2 µg/mL?
Key: false (0)

Exercise: Field: below-cutoff. Rule: recorded IC50 strictly less than 2 µg/mL. Subject: CC(NC(=S)Nc1ccc(NC(=O)c2nccc3ccccc23)cc1)c1ccc(F)cc1 (centres unmarked) [Example 976]
Key: true (1)

Exercise: # strict comparison: is reported IC50 < 2 µg/mL? input = Cc1ccc(C(C)NC(=S)Nc2ccc(NC(=O)c3ccccc3F)cc2)cc1 (centres unmarked) [Example 782]
Key: false (0)

Exercise: Take the compound CCCOc1ccc(NC(=S)Nc2ccc(NC(=O)c3ccccc3F)cc2)cc1Cl [Example 807] and say whether its IC50 is less than 2 µg/mL.
Key: true (1)

Exercise: Hello, I'm reviewing records and need to know if IC50 of COc1cccc(C(=O)Nc2ccc(NC(=S)NC(C)c3ccc(F)cc3)cc2)c1 (centres unmarked) [Example 753] is below 2 µg/mL. Could you check?
Key: false (0)

Exercise: Is it true that IC50 reported for O=C(Nc1ccc(NC(=S)Nc2ccc(OC(F)(F)F)c(Br)c2)cc1)c1ccccc1F [Example 549] is less than 2 µg/mL?
Key: false (0)

Exercise: Quick check: does COc1cc(OC)c(NC(=S)Nc2ccc(NC(=O)c3ccccc3F)cc2)cc1Cl [Example 118] have IC50 under 2 µg/mL?
Key: false (0)

Exercise: Determine if CC(NC(=S)Nc1ccc(NC(=O)c2ccccc2F)cc1)c1ccc(Cl)cc1 (centres unmarked) [Example 781] shows IC50 strictly lower than 2 µg/mL.
Key: true (1)

Exercise: State whether 2 µg/mL exceeds IC50 recorded for COc1cc(OC)c(NC(=S)Nc2ccc(NC(=O)c3ccccc3[S+](C)[O-])cc2)cc1Cl (centres unmarked) [Example 220] .
Key: false (0)

Exercise: Does this compound meet the criterion IC50 < 2 µg/mL? CC(C)COc1ccc(NC(=S)Nc2ccc(NC(=O)c3ccccc3F)cc2)cc1Cl [Example 994]
Key: false (0)

Exercise: Is IC50 of CCC(C)Cc1cc(NC(=S)Nc2ccc(NC(=O)c3ccccc3F)cc2)cc(C(F)(F)F)c1 (centres unmarked) [Example 577] strictly below 2 µg/mL?
Key: false (0)

Exercise: Find out if reported IC50 for COc1ccc(NC(=S)Nc2ccc(NC(=O)c3ccccc3F)cc2)cc1Br [Example 811] is less than 2 µg/mL
Key: false (0)
